System: Alkaligenes sp. B-667
experimentDescription: Sensitivity of strains: suppression of growth
Type: cell-based
assaySetup: Compound (1) 1.0%; antibiotics disc method
property: Suppression of Growth (+/−)

Would you please look over these solved cases?
CO[C@H]1/C=C/O[C@@]2(C)Oc3c(C)c(O)c4c(O)c(c(/C=N/N5CCN(C)CC5)c(O)c4c3C2=O)NC(=O)/C(C)=C\C=C\[C@H](C)[C@H](O)[C@@H](C)[C@@H](O)[C@@H](C)[C@H](OC(C)=O)[C@@H]1C [Antibiotic 10, rifampicin] | +
CC[C@H]1OC(=O)[C@H](C)[C@@H](O[C@H]2C[C@@](C)(OC)[C@@H](O)[C@H](C)O2)[C@H](C)[C@@H](O[C@@H]2O[C@H](C)C[C@H](N(C)C)[C@H]2O)[C@](C)(O)C[C@@H](C)C(=O)[C@H](C)[C@@H](O)[C@]1(C)O [Antibiotic 14, erythromycin] | −
CC1(C)S[C@@H]2[C@H](NC(=O)C(C(=O)O)c3ccccc3)C(=O)N2[C@H]1C(=O)O (stereo partly drawn) [Antibiotic 4, carbenicillin] | −
[H]/N=C(/N)N[C@H]1[C@H](O)[C@@H](O)[C@H](O[C@@H]2O[C@@H](C)[C@](O)(C=O)[C@H]2O[C@@H]2O[C@@H](CO)[C@H](O)[C@@H](O)[C@@H]2NC)[C@@H](N/C(N)=N\[H])[C@@H]1O [Antibiotic 12, streptomycin] | −
CC1(C)S[C@@H]2[C@H](NC(=O)[C@H](N)c3ccccc3)C(=O)N2[C@H]1C(=O)O [Antibiotic 2, ampicillin] | −

Consider now this further compound.
Give the value of Suppression of Growth (+/−) reported for the following: NC[C@H]1O[C@H](O[C@H]2[C@H](O)[C@@H](O[C@H]3O[C@H](CO)[C@@H](O)[C@H](N)[C@H]3O)[C@H](N)C[C@@H]2N)[C@H](O)[C@@H](O)[C@@H]1O [Antibiotic 5, kanamycin]
−

* * *

System: Escherichia coli M-17
experimentDescription: Sensitivity of strains: suppression of growth
Type: cell-based
assaySetup: Compound (1) 1.0%; antibiotics disc method
property: Suppression of Growth (+/−)

CN(C)[C@@H]1C(=O)C(C(N)=O)=C(O)[C@@]2(O)C(=O)C3=C(O)c4c(O)cccc4[C@@](C)(O)[C@H]3C[C@@H]12 [Antibiotic 13, tetracycline] | +
NC[C@H]1O[C@H](O[C@H]2[C@H](O)[C@@H](O[C@H]3O[C@H](CO)[C@@H](O)[C@H](N)[C@H]3O)[C@H](N)C[C@@H]2N)[C@H](O)[C@@H](O)[C@@H]1O [Antibiotic 5, kanamycin] | +
O=C(N[C@H](CO)[C@H](O)c1ccc([N+](=O)[O-])cc1)C(Cl)Cl [Antibiotic 7, levomicethin] | +
CO[C@H]1/C=C/O[C@@]2(C)Oc3c(C)c(O)c4c(O)c(c(/C=N/N5CCN(C)CC5)c(O)c4c3C2=O)NC(=O)/C(C)=C\C=C\[C@H](C)[C@H](O)[C@@H](C)[C@@H](O)[C@@H](C)[C@H](OC(C)=O)[C@@H]1C [Antibiotic 10, rifampicin] | −
CC1(C)S[C@@H]2[C@H](NC(=O)[C@H](N)c3ccccc3)C(=O)N2[C@H]1C(=O)O [Antibiotic 2, ampicillin] | +

Give the value of Suppression of Growth (+/−) reported for the following: CC1(C)S[C@@H]2[C@H](NC(=O)C(C(=O)O)c3ccccc3)C(=O)N2[C@H]1C(=O)O (some centres unmarked) [Antibiotic 4, carbenicillin]
+

Give the value of Suppression of Growth (+/−) reported for the following: CCC[C@@H]1C[C@@H](C(=O)N[C@@H]([C@H]2O[C@H](SC)[C@H](O)[C@@H](O)[C@H]2O)[C@@H](C)O)N(C)C1 [Antibiotic 6, lincomycin]
−

Give the value of Suppression of Growth (+/−) reported for the following: CC[C@H]1OC(=O)[C@H](C)[C@@H](O[C@H]2C[C@@](C)(OC)[C@@H](O)[C@H](C)O2)[C@H](C)[C@@H](O[C@@H]2O[C@H](C)C[C@H](N(C)C)[C@H]2O)[C@](C)(O)C[C@@H](C)C(=O)[C@H](C)[C@@H](O)[C@]1(C)O [Antibiotic 14, erythromycin]
+

* * *

Tested on: Staphylococcus aureus M-209
experimentDescription: Sensitivity of strains: suppression of growth
Assay type: cell-based
assaySetup: Compound (1) 1.0%; antibiotics disc method
property: Suppression of Growth (+/−)

Would you please look over these solved cases?
CC1(C)S[C@@H]2[C@H](NC(=O)C(C(=O)O)c3ccccc3)C(=O)N2[C@H]1C(=O)O (some centres unmarked) [Antibiotic 4, carbenicillin] | +
[H]/N=C(/N)N[C@H]1[C@H](O)[C@@H](O)[C@H](O[C@@H]2O[C@@H](C)[C@](O)(C=O)[C@H]2O[C@@H]2O[C@@H](CO)[C@H](O)[C@@H](O)[C@@H]2NC)[C@@H](N/C(N)=N\[H])[C@@H]1O [Antibiotic 12, streptomycin] | +
O=C(N[C@H](CO)[C@H](O)c1ccc([N+](=O)[O-])cc1)C(Cl)Cl [Antibiotic 7, levomicethin] | −
CO[C@H]1/C=C/O[C@@]2(C)Oc3c(C)c(O)c4c(O)c(c(/C=N/N5CCN(C)CC5)c(O)c4c3C2=O)NC(=O)/C(C)=C\C=C\[C@H](C)[C@H](O)[C@@H](C)[C@@H](O)[C@@H](C)[C@H](OC(C)=O)[C@@H]1C [Antibiotic 10, rifampicin] | +

Give the value of Suppression of Growth (+/−) reported for the following: CC1(C)S[C@@H]2[C@H](NC(=O)[C@H](N)c3ccccc3)C(=O)N2[C@H]1C(=O)O [Antibiotic 2, ampicillin]
−

* * *

experimentDescription: Blood levels after single-dose oral administration, UV spectroscopy
Type: in vivo, Sprague-Dawley rats
assaySetup: Sprague-Dawley, rat, serum, oral, 1000 mg/kg, 1000 mg/kg fasted; 8 hours; read-out: Blood Level of Compound (1), Mean
Experimental: The aim of this example was to establish absorption and blood levels of Compound (1) in the rat after a single-dose, oral administration. […] Compound (1) suspensions and the water control were administered at approx […], in a single. One control and five treatment rats were weighed immediately before each dose administration, the dose volume calculated and the dose delivered by gavage (22 gauge stainless steel, smooth-balled end attached to a syringe). […]
property: concentration at 8 h (ng/mL)
Your answer should be a plain number; it is taken to be in ng/mL.

Give the value of concentration at 8 h reported for the following: C/C(=C\c1ccc2c(c1)OCO2)[N+](=O)[O-]
21000

* * *

System: Shigella flexneri M-2A6907
experimentDescription: Sensitivity of strains: suppression of growth
Type: cell-based
assaySetup: Compound (1) 1.0%; antibiotics disc method
property: Suppression of Growth (+/−)

CCC[C@@H]1C[C@@H](C(=O)N[C@@H]([C@H]2O[C@H](SC)[C@H](O)[C@@H](O)[C@H]2O)[C@@H](C)O)N(C)C1 [Antibiotic 6, lincomycin] | −
O=C(N[C@H](CO)[C@H](O)c1ccc([N+](=O)[O-])cc1)C(Cl)Cl [Antibiotic 7, levomicethin] | +
C/C(=C\c1ccc2c(c1)OCO2)[N+](=O)[O-] [Compound (1)] | +
CC[C@H]1OC(=O)[C@H](C)[C@@H](O[C@H]2C[C@@](C)(OC)[C@@H](O)[C@H](C)O2)[C@H](C)[C@@H](O[C@@H]2O[C@H](C)C[C@H](N(C)C)[C@H]2O)[C@](C)(O)C[C@@H](C)C(=O)[C@H](C)[C@@H](O)[C@]1(C)O [Antibiotic 14, erythromycin] | −

* * *

experimentDescription: physchem
assaySetup: aqueous with cosolvent or surfactant or cyclodextrin
property: solubility (µg/mL)
Your answer should be a plain number; it is taken to be in µg/mL.

Give the value of solubility reported for the following: C/C(=C\c1ccc2c(c1)OCO2)[N+](=O)[O-]
1000

* * *

Test system: Corynebacterium diphtheriae B-670
experimentDescription: Sensitivity of strains: suppression of growth
Format: cell-based
assaySetup: Compound (1) 1.0%; antibiotics disc method
property: Suppression of Growth (+/−)

NC[C@H]1O[C@H](O[C@H]2[C@H](O)[C@@H](O[C@H]3O[C@H](CO)[C@@H](O)[C@H](N)[C@H]3O)[C@H](N)C[C@@H]2N)[C@H](O)[C@@H](O)[C@@H]1O [Antibiotic 5, kanamycin] | −
CO[C@H]1/C=C/O[C@@]2(C)Oc3c(C)c(O)c4c(O)c(c(/C=N/N5CCN(C)CC5)c(O)c4c3C2=O)NC(=O)/C(C)=C\C=C\[C@H](C)[C@H](O)[C@@H](C)[C@@H](O)[C@@H](C)[C@H](OC(C)=O)[C@@H]1C [Antibiotic 10, rifampicin] | +
CC[C@H]1OC(=O)[C@H](C)[C@@H](O[C@H]2C[C@@](C)(OC)[C@@H](O)[C@H](C)O2)[C@H](C)[C@@H](O[C@@H]2O[C@H](C)C[C@H](N(C)C)[C@H]2O)[C@](C)(O)C[C@@H](C)C(=O)[C@H](C)[C@@H](O)[C@]1(C)O [Antibiotic 14, erythromycin] | +
CC1(C)S[C@@H]2[C@H](NC(=O)C(C(=O)O)c3ccccc3)C(=O)N2[C@H]1C(=O)O (stereo partly shown) [Antibiotic 4, carbenicillin] | −
